- TARGET_ENTITY: Carbonic anhydrase 7 (Homo sapiens, UniProt P43166)
- Sequence (P43166 whole entry): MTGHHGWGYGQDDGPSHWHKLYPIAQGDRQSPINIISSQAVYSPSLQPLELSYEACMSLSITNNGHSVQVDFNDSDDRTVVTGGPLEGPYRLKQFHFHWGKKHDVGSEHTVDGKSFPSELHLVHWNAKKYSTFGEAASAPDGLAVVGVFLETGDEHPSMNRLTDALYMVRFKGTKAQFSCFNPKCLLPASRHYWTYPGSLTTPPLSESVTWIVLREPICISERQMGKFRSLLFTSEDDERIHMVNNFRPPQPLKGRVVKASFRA
- ASSAY: Inhibition of human recombinant carbonic anhydrase 7 preincubated with enzyme for 1 hr prior to testing by phenol red-based stopped-flow CO2 hydration assay
pKi: −log10 of the molar value.
Examples of compounds with documented pKi follow.

- COMPOUND: "NS(=O)(=O)c1ccc(OP(=O)(SCc2ccccc2)c2ccccc2)cc1 (racemic)"
  pKi: 7.12
- COMPOUND: "NS(=O)(=O)c1ccc(OP(=O)(O)c2ccccc2)cc1"
  pKi: 7.79
- COMPOUND: "COCCOP(=O)(Oc1ccc(S(N)(=O)=O)cc1)c1ccccc1 (racemic)"
  pKi: 7.60
- COMPOUND: "COP(=O)(Oc1ccc(S(N)(=O)=O)cc1)c1ccccc1 (racemic)"
  pKi: 7.44
- COMPOUND: "NS(=O)(=O)c1ccc(OP(=O)(NCc2ccccc2)c2ccccc2)cc1 (racemic)"
  pKi: 7.81
- COMPOUND: "NS(=O)(=O)c1ccc(OP(=O)(c2ccccc2)N2CCCC2)cc1 (racemic)"
  pKi: 8.03
- COMPOUND: "C#CCOP(=O)(Oc1ccc(S(N)(=O)=O)cc1)c1ccccc1 (racemic)"
  pKi: 7.91
- COMPOUND: "CC(C)OP(=O)(Oc1ccc(S(N)(=O)=O)cc1)c1ccccc1 (racemic)"
  pKi: 8.21
- COMPOUND: "CCCNP(=O)(Oc1ccc(S(N)(=O)=O)cc1)c1ccccc1 (racemic)"
  pKi: 7.68
- COMPOUND: "NS(=O)(=O)c1ccc(OP(=O)(Oc2ccc(S(N)(=O)=O)cc2)c2ccccc2)cc1"
  pKi: 8.11

---

- TARGET_ENTITY: Carbonic anhydrase 9 (Homo sapiens)
- ASSAY: Inhibition of human recombinant carbonic anhydrase 9 preincubated with enzyme for 1 hr prior to testing by phenol red-based stopped-flow CO2 hydration assay
pKi: −log10 of the molar value.

- COMPOUND: "NS(=O)(=O)c1ccc(OP(=O)(Sc2ccccc2)c2ccccc2)cc1 (racemic)"
  TARGET_ENTITY: "Carbonic anhydrase 9 (Homo sapiens)"
  pKi: 8.18
- COMPOUND: "COP(=O)(Oc1ccc(S(N)(=O)=O)cc1)c1ccccc1 (racemic)"
  TARGET_ENTITY: "Carbonic anhydrase 9 (Homo sapiens)"
  pKi: 7.79
- COMPOUND: "CCN(CC)P(=O)(Oc1ccc(S(N)(=O)=O)cc1)c1ccccc1 (racemic)"
  TARGET_ENTITY: "Carbonic anhydrase 9 (Homo sapiens)"
  pKi: 7.71
- COMPOUND: "CC(C)OP(=O)(Oc1ccc(S(N)(=O)=O)cc1)c1ccccc1 (racemic)"
  TARGET_ENTITY: "Carbonic anhydrase 9 (Homo sapiens)"
  pKi: 7.76
- COMPOUND: "NP(=O)(Oc1ccc(S(N)(=O)=O)cc1)c1ccccc1 (racemic)"
  TARGET_ENTITY: "Carbonic anhydrase 9 (Homo sapiens)"
  pKi: 7.68
- COMPOUND: "COCCOP(=O)(Oc1ccc(S(N)(=O)=O)cc1)c1ccccc1 (racemic)"
  TARGET_ENTITY: "Carbonic anhydrase 9 (Homo sapiens)"
  pKi: 7.92
- COMPOUND: "NS(=O)(=O)c1ccc(OP(=O)(NCc2ccccc2)c2ccccc2)cc1 (racemic)"
  TARGET_ENTITY: "Carbonic anhydrase 9 (Homo sapiens)"
  pKi: 8.59
- COMPOUND: "CN1CCN(P(=O)(Oc2ccc(S(N)(=O)=O)cc2)c2ccccc2)CC1 (racemic)"
  TARGET_ENTITY: "Carbonic anhydrase 9 (Homo sapiens)"
  pKi: 7.21
- COMPOUND: "NS(=O)(=O)c1ccc(OP(=O)(Oc2ccc(S(N)(=O)=O)cc2)c2ccccc2)cc1"
  TARGET_ENTITY: "Carbonic anhydrase 9 (Homo sapiens)"
  pKi: 7.71
- COMPOUND: "NS(=O)(=O)c1ccc(OP(=O)(SCc2ccccc2)c2ccccc2)cc1 (racemic)"
  TARGET_ENTITY: "Carbonic anhydrase 9 (Homo sapiens)"
  pKi: 7.60
- COMPOUND: "NS(=O)(=O)c1ccc(OP(=O)(Oc2ccccc2)c2ccccc2)cc1 (racemic)"
  TARGET_ENTITY: "Carbonic anhydrase 9 (Homo sapiens)"
  pKi: 7.88
- COMPOUND: "NS(=O)(=O)c1ccc(OP(=O)(Nc2ccccc2)c2ccccc2)cc1 (racemic)"
  TARGET_ENTITY: "Carbonic anhydrase 9 (Homo sapiens)"
  pKi: 7.71
- COMPOUND: "NS(=O)(=O)c1ccc(OP(=O)(c2ccccc2)N2CCOCC2)cc1 (racemic)"
  TARGET_ENTITY: "Carbonic anhydrase 9 (Homo sapiens)"
  pKi: 7.95
- COMPOUND: "CCCCCCCCCCCCSP(=O)(Oc1ccc(S(N)(=O)=O)cc1)c1ccccc1 (racemic)"
  TARGET_ENTITY: "Carbonic anhydrase 9 (Homo sapiens)"
  pKi: 7.29
- COMPOUND: "NS(=O)(=O)c1ccc(OP(=O)(c2ccccc2)N2CCCC2)cc1 (racemic)"
  TARGET_ENTITY: "Carbonic anhydrase 9 (Homo sapiens)"
  pKi: 7.54
- COMPOUND: "CCSP(=O)(Oc1ccc(S(N)(=O)=O)cc1)c1ccccc1 (racemic)"
  TARGET_ENTITY: "Carbonic anhydrase 9 (Homo sapiens)"
  pKi: 7.57
- COMPOUND: "NS(=O)(=O)c1ccc(OP(=O)(O)c2ccccc2)cc1"
  TARGET_ENTITY: "Carbonic anhydrase 9 (Homo sapiens)"
  pKi: 7.58
- COMPOUND: "CCOP(=O)(Oc1ccc(S(N)(=O)=O)cc1)c1ccccc1 (racemic)"
  TARGET_ENTITY: "Carbonic anhydrase 9 (Homo sapiens)"
  pKi: 7.73
- COMPOUND: "CCCNP(=O)(Oc1ccc(S(N)(=O)=O)cc1)c1ccccc1 (racemic)"
  TARGET_ENTITY: "Carbonic anhydrase 9 (Homo sapiens)"
  pKi: 8.49

---

- TARGET_ENTITY: Carbonic anhydrase 4 (Homo sapiens, UniProt P22748)
- Sequence (P22748 whole entry): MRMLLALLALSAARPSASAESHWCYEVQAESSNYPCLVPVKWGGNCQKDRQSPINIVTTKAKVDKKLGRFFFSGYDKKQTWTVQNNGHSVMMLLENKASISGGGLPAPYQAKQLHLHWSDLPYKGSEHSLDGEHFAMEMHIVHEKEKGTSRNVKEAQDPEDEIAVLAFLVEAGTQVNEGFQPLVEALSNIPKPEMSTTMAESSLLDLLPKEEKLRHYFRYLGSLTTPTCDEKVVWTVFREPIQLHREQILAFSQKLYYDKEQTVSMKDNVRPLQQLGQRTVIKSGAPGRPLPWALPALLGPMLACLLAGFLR
- ASSAY: Inhibition of human recombinant carbonic anhydrase 4 preincubated with enzyme for 1 hr prior to testing by phenol red-based stopped-flow CO2 hydration assay
Criterion: Ki strictly less than 400 nM. Met: condition met. Not met: condition not met.

- COMPOUND: "CC(C)OP(=O)(Oc1ccc(S(N)(=O)=O)cc1)c1ccccc1 (racemic)"
  LABEL_VALUE: "condition not met"
- COMPOUND: "NS(=O)(=O)c1ccc(OP(=O)(O)c2ccccc2)cc1"
  LABEL_VALUE: "condition met"
- COMPOUND: "COCCOP(=O)(Oc1ccc(S(N)(=O)=O)cc1)c1ccccc1 (racemic)"
  LABEL_VALUE: "condition not met"
- COMPOUND: "C#CCO[P@](=O)(Oc1ccc(S(N)(=O)=O)cc1)c1ccccc1"
  LABEL_VALUE: "condition not met"
- COMPOUND: "NS(=O)(=O)c1ccc(OP(=O)(c2ccccc2)N2CCOCC2)cc1 (racemic)"
  LABEL_VALUE: "condition met"
- COMPOUND: "COP(=O)(Oc1ccc(S(N)(=O)=O)cc1)c1ccccc1 (racemic)"
  LABEL_VALUE: "condition met"
- COMPOUND: "CCCNP(=O)(Oc1ccc(S(N)(=O)=O)cc1)c1ccccc1 (racemic)"
  LABEL_VALUE: "condition not met"
- COMPOUND: "NS(=O)(=O)c1ccc(OP(=O)(Nc2ccccc2)c2ccccc2)cc1 (racemic)"
  LABEL_VALUE: "condition not met"
- COMPOUND: "NS(=O)(=O)c1ccc(OP(=O)(c2ccccc2)N2CCCC2)cc1 (racemic)"
  LABEL_VALUE: "condition met"
- COMPOUND: "NP(=O)(Oc1ccc(S(N)(=O)=O)cc1)c1ccccc1 (racemic)"
  LABEL_VALUE: "condition met"
- COMPOUND: "NS(=O)(=O)c1ccc(OP(=O)(SCc2ccccc2)c2ccccc2)cc1 (racemic)"
  LABEL_VALUE: "condition not met"
- COMPOUND: "NS(=O)(=O)c1ccc(OP(=O)(Oc2ccccc2)c2ccccc2)cc1 (racemic)"
  LABEL_VALUE: "condition not met"
- COMPOUND: "CN1CCN(P(=O)(Oc2ccc(S(N)(=O)=O)cc2)c2ccccc2)CC1 (racemic)"
  LABEL_VALUE: "condition met"
- COMPOUND: "NS(=O)(=O)c1ccc(OP(=O)(Sc2ccccc2)c2ccccc2)cc1 (racemic)"
  LABEL_VALUE: "condition not met"
- COMPOUND: "CCN(CC)P(=O)(Oc1ccc(S(N)(=O)=O)cc1)c1ccccc1 (racemic)"
  LABEL_VALUE: "condition met"
- COMPOUND: "CCCCCCCCCCCCSP(=O)(Oc1ccc(S(N)(=O)=O)cc1)c1ccccc1 (racemic)"
  LABEL_VALUE: "condition not met"
- COMPOUND: "NS(=O)(=O)c1ccc(OP(=O)(NCc2ccccc2)c2ccccc2)cc1 (racemic)"
  LABEL_VALUE: "condition not met"
- COMPOUND: "C#CCO[P@@](=O)(Oc1ccc(S(N)(=O)=O)cc1)c1ccccc1"
  LABEL_VALUE: "condition not met"
- COMPOUND: "CCOP(=O)(Oc1ccc(S(N)(=O)=O)cc1)c1ccccc1 (racemic)"
  LABEL_VALUE: "condition not met"
- COMPOUND: "C#CCOP(=O)(Oc1ccc(S(N)(=O)=O)cc1)c1ccccc1 (racemic)"
  LABEL_VALUE: "condition not met"
- COMPOUND: "CCSP(=O)(Oc1ccc(S(N)(=O)=O)cc1)c1ccccc1 (racemic)"
  LABEL_VALUE: "condition not met"
- COMPOUND: "NS(=O)(=O)c1ccc(OP(=O)(Oc2ccc(S(N)(=O)=O)cc2)c2ccccc2)cc1"
  LABEL_VALUE: "condition met"
